Molecular target: Eip93f (Drosophila melanogaster, UniProt Q9VD60 752-830)
Sequence: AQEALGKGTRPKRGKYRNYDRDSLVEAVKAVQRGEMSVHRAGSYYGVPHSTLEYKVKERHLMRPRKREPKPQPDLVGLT
Assay: FP; 33 mM phosphate pH 7.0, 90 mM NaCl, 0.01% Tween 20, 0.1 mM DTT, 0.5% agarose; room temperature
Conditions: tags: N-GST (pGEX-6P-1, kept); dsDNA, one strand shown
METRIC NAME: binding signal

sequence_data=CATAGCCGCAAATCG result="20 Kd / Kd of best base at the position"

====

Target: EcR (Drosophila melanogaster, UniProt P34021 251-348)
Sequence: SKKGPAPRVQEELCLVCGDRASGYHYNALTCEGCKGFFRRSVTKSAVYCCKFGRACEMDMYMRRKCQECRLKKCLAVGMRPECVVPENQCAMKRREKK
Assay: FP; 33 mM phosphate pH 7.0, 90 mM NaCl, 0.01% Tween 20, 0.1 mM DTT, 0.5% agarose; room temperature
Settings: tags: N-GST (pGEX-6P-1, kept); dsDNA, one strand shown
METRIC NAME: binding signal

sequence_data=GAATGACCCATAC target_of_assay="EcR (Drosophila melanogaster, UniProt P34021 251-348)" result="2.6 Kd / Kd of best base at the position"
sequence_data=GAATGATCCCTAC target_of_assay="EcR (Drosophila melanogaster, UniProt P34021 251-348)" result="9.3 Kd / Kd of best base at the position"

====

Biological target: Zelda (Drosophila melanogaster, UniProt Q9VWC6 1319-1447)
Sequence: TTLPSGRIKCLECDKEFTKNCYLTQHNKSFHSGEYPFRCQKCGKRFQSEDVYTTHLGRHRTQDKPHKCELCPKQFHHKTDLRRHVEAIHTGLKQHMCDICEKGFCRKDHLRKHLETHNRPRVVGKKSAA
Test: FP; 33 mM phosphate pH 7.0, 90 mM NaCl, 0.01% Tween 20, 0.1 mM DTT, 0.5% agarose; room temperature
Conditions: tags: N-GST (pGEX-6P-1, kept); dsDNA, one strand shown
METRIC NAME: binding signal

sequence_data=AATTTTAGGTACC result="4.6 Kd / Kd of best base at the position"

====

target: Oc (Drosophila melanogaster, UniProt P22810 52-141); experiment: FP; 33 mM phosphate pH 7.0, 90 mM NaCl, 0.01% Tween 20, 0.1 mM DTT, 0.5% agarose; room temperature; details: tags: N-GST (pGEX-6P-1, kept); dsDNA, one strand shown
Sequence (P22810 52-141): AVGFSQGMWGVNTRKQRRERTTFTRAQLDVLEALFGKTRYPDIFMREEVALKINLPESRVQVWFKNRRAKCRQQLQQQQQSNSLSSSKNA
pKd: −log10 of the molar value.
METRIC NAME: pKd

sequence_data=AGTTAATCCCCT metric_name=pKd result=~8.42

====

Biological target: Zelda (Drosophila melanogaster, UniProt Q9VWC6 1319-1447)
Sequence: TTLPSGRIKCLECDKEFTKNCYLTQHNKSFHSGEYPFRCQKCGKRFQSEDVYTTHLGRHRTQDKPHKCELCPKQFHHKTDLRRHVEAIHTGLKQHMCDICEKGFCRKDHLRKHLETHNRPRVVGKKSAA
Assay: FP; 33 mM phosphate pH 7.0, 90 mM NaCl, 0.01% Tween 20, 0.1 mM DTT, 0.5% agarose; room temperature
Settings: tags: N-GST (pGEX-6P-1, kept); dsDNA, one strand shown
METRIC NAME: binding signal

sequence_data=AATTTCGGGTACC result="7.8 Kd / Kd of best base at the position"

====

target: Kr (Drosophila melanogaster, UniProt P07247 220-332); experiment: FP; 20 mM Tris-acetate pH 7.0, 50 "nM" NaCl as printed (probably mM), 0.01% Tween 20, 0.1 mM DTT; conventional titration; details: tags: N-GST (pGEX-6P-1, kept); dsDNA, one strand shown
Sequence (P07247 220-332): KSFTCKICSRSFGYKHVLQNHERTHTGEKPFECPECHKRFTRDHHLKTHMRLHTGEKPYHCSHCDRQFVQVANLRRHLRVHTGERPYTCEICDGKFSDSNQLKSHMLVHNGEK
METRIC NAME: binding signal

sequence_data=TTGAGGCATTA target_of_assay="Kr (Drosophila melanogaster, UniProt P07247 220-332)" metric_name="binding signal" result="267 Kd / Kd of best base at the position"

====

Target: Zelda (Drosophila melanogaster, UniProt Q9VWC6 1319-1447)
Sequence: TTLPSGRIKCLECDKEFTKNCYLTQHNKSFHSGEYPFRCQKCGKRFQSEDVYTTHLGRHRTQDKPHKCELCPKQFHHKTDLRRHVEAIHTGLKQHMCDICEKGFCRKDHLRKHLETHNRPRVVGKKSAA
Assay: FP; 33 mM phosphate pH 7.0, 90 mM NaCl, 0.01% Tween 20, 0.1 mM DTT, 0.5% agarose; room temperature
Conditions: tags: N-GST (pGEX-6P-1, kept); dsDNA, one strand shown
METRIC NAME: Kd

sequence_data=AATTTCAGGTACC result="~5.7 nM"

====

Molecular target: Gt (Drosophila melanogaster, UniProt P39572 369-448)
Sequence: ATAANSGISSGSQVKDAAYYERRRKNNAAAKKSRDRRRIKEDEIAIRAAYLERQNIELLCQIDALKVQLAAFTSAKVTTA
Assay: FP; 33 mM phosphate pH 7.0, 90 mM NaCl, 0.01% Tween 20, 0.1 mM DTT, 0.5% agarose; room temperature
Conditions: tags: N-GST (pGEX-6P-1, kept); chain copies: 2; dsDNA, one strand shown
pKd: −log10 of the molar value.
METRIC NAME: pKd

sequence_data=ATTACGTAACC result=~9.05

====

Molecular target: Cad (Drosophila melanogaster, UniProt P09085 273-344)
Sequence: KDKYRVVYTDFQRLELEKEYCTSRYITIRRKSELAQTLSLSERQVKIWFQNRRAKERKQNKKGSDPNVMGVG
Assay: FP; 20 mM Tris-acetate pH 7.0, 50 "nM" NaCl as printed (probably mM), 0.01% Tween 20, 0.1 mM DTT; conventional titration
Settings: tags: N-GST (pGEX-6P-1, kept); dsDNA, one strand shown
Each record here notes measured binding signal.
METRIC NAME: binding signal

sequence_data=CACTTTATATA target_of_assay="Cad (Drosophila melanogaster, UniProt P09085 273-344)" metric_name="binding signal" result="3 Kd / Kd of best base at the position"
sequence_data=CACGTTTTATA target_of_assay="Cad (Drosophila melanogaster, UniProt P09085 273-344)" metric_name="binding signal" result="5.5 Kd / Kd of best base at the position"
sequence_data=CACTTTTAATA target_of_assay="Cad (Drosophila melanogaster, UniProt P09085 273-344)" metric_name="binding signal" result="4.1 Kd / Kd of best base at the position"
sequence_data=CACTTTTTACA target_of_assay="Cad (Drosophila melanogaster, UniProt P09085 273-344)" metric_name="binding signal" result="1.6 Kd / Kd of best base at the position"
sequence_data=CACTTTTTTTA target_of_assay="Cad (Drosophila melanogaster, UniProt P09085 273-344)" metric_name="binding signal" result="181 Kd / Kd of best base at the position"
sequence_data=CACTTTTTAGA target_of_assay="Cad (Drosophila melanogaster, UniProt P09085 273-344)" metric_name="binding signal" result="16 Kd / Kd of best base at the position"
sequence_data=CACTTTTTCTA target_of_assay="Cad (Drosophila melanogaster, UniProt P09085 273-344)" metric_name="binding signal" result="287 Kd / Kd of best base at the position"
sequence_data=GACTTTTTATA target_of_assay="Cad (Drosophila melanogaster, UniProt P09085 273-344)" metric_name="binding signal" result="1.8 Kd / Kd of best base at the position"
sequence_data=AACTTTTTATA target_of_assay="Cad (Drosophila melanogaster, UniProt P09085 273-344)" metric_name="binding signal" result="2.9 Kd / Kd of best base at the position"
sequence_data=CGCTTTTTATA target_of_assay="Cad (Drosophila melanogaster, UniProt P09085 273-344)" metric_name="binding signal" result="3.5 Kd / Kd of best base at the position"
sequence_data=CACTTTTTATG target_of_assay="Cad (Drosophila melanogaster, UniProt P09085 273-344)" metric_name="binding signal" result="2.2 Kd / Kd of best base at the position"
sequence_data=CACTATTTATA target_of_assay="Cad (Drosophila melanogaster, UniProt P09085 273-344)" metric_name="binding signal" result="2.8 Kd / Kd of best base at the position"
sequence_data=TACTTTTTATA target_of_assay="Cad (Drosophila melanogaster, UniProt P09085 273-344)" metric_name="binding signal" result="1.3 Kd / Kd of best base at the position"
sequence_data=CCCTTTTTATA target_of_assay="Cad (Drosophila melanogaster, UniProt P09085 273-344)" metric_name="binding signal" result="1 Kd / Kd of best base at the position"
sequence_data=CACATTTTATA target_of_assay="Cad (Drosophila melanogaster, UniProt P09085 273-344)" metric_name="binding signal" result="2.5 Kd / Kd of best base at the position"
sequence_data=CTCTTTTTATA target_of_assay="Cad (Drosophila melanogaster, UniProt P09085 273-344)" metric_name="binding signal" result="4.6 Kd / Kd of best base at the position"
sequence_data=CACTGTTTATA target_of_assay="Cad (Drosophila melanogaster, UniProt P09085 273-344)" metric_name="binding signal" result="3.1 Kd / Kd of best base at the position"
